// reported IC50 for each item listed
targetOrTestSystem: CDK2/CyclinE1 (Homo sapiens)
Construct: purchased SignalChem C29-18G
assayDetails: Assay for inhibition of CDK2/CyclinE1 (Caliper microfluidic kinase assay)
Format: biochemical
appliedConditions: CDK2/CyclinE1, 100 μM ATP; read-out: CDK2 IC50
readoutKind: IC50

- compound: "CNC1CCN(c2ccc(Nc3nccc(-c4ccn5ncc(C(C)C)c5c4)n3)nc2)C(=O)C1 (centres unmarked) [Synthetic Example 204]"
  readoutKind: "IC50"
  obsValue: "< 10 nM"
- compound: "CCN1CCN(Cc2ccc(Nc3nccc(-c4cc5c(ncn5C(C)C)c(F)n4)n3)nc2)CC1"
  readoutKind: "IC50"
  obsValue: "> 1000 nM"
- compound: "CNC1CCCN(c2ccc(Nc3nccc(-c4cc5c(ncn5C(C)C)c(F)n4)n3)cc2)C1=O (centres unmarked)"
  readoutKind: "IC50"
  obsValue: "10 to 100 nM"
- compound: "CC(C)c1cnn2ccc(-c3ccnc(Nc4cnn(CC5CCNCC5)c4)n3)cc12"
  readoutKind: "IC50"
  obsValue: "10 to 100 nM"
- compound: "O=C1COCCN1c1ccc(Nc2ncc(F)c(-c3ccn4ncc(C5CCCC5)c4c3)n2)nc1"
  readoutKind: "IC50"
  obsValue: "100 to 1000 nM"
- compound: "COc1nc(-c2nc(Nc3ccc(N4CCN(C5COC5)CC4=O)cn3)ncc2F)cc2c1ncn2C(C)C"
  readoutKind: "IC50"
  obsValue: "> 1000 nM"
- compound: "CC(C)(C)c1cnn2ccc(-c3ccnc(Nc4ccc(N5CCCC(N)C5=O)cn4)n3)cc12 (centres unmarked)"
  readoutKind: "IC50"
  obsValue: "10 to 100 nM"
- compound: "CC(C)(C)c1cnn2ccc(-c3ccnc(Nc4ccc(N5CCNCCC5=O)cn4)n3)cc12"
  readoutKind: "IC50"
  obsValue: "10 to 100 nM"

----------
Tested on: phosphorylation of Retinoblastoma Protein (pRb Ser807/811 or Ser780) in T47D cells
assayDetails: Inhibition of phosphorylation of retinoblastoma protein (pRb) in T47D cell (ELISA)
Format: cell-based, human
appliedConditions: Homo sapiens, T47D, read-out: Phospho T47D Ser807 IC50, pRb Ser807 phosphorylation, T47D cells
Each entry below carries its recorded IC50.

- compound: "CC(C)c1cnn2ccc(-c3nc(Nc4ccc(N5CCC(N(C)C)CC5=O)cn4)ncc3F)cc12 (stereo not shown)"
  IC50: "< 100 nM"
- compound: "COc1nc(-c2ccnc(Nc3ccc(N4CC5CC4CN5)cn3)n2)cc2c1ncn2C(C)C (stereo not shown)"
  IC50: "< 100 nM"
- compound: "Cc1nc2c(F)nc(-c3ccnc(Nc4ccc(N5CCCC(N(C)C)C5=O)cn4)n3)cc2n1C(C)C (stereo not shown) [Synthetic Example 301]"
  IC50: "< 100 nM"
- compound: "COc1nc(-c2nc(Nc3ccc(N4CCCOCC4=O)cn3)ncc2F)cc2c1nc(C)n2C(C)C"
  IC50: "100 to 500 nM"

----------
System: phosphorylation of Retinoblastoma Protein (pRb Ser807/811 or Ser780) in T47D cells
assayDetails: Inhibition of phosphorylation of retinoblastoma protein (pRb) in T47D cell (ELISA)
Type: cell-based, human
appliedConditions: Homo sapiens, T47D, read-out: Phospho T47D Ser807 IC50, pRb Ser807 phosphorylation, T47D cells

- molecule: "CC(C)n1cnc2c(F)nc(-c3ccnc(Nc4ccc(N5CCNCC5=O)cn4)n3)cc21 [compound 273]"
  IC50: "< 100 nM"
- molecule: "COc1nc(-c2nc(Nc3ccc(N4CCCCC4=O)cn3)ncc2F)cc2c1nc(C)n2C(C)C [compound 93]"
  IC50: "100 to 500 nM"
- molecule: "CC(C)n1cnc2c(F)nc(-c3ccnc(Nc4ccc(N5CCCNC5=O)cn4)n3)cc21 [compound 275]"
  IC50: "< 100 nM"
- molecule: "CC(C)c1cnn2ccc(-c3ccnc(Nc4ccc(C(N)=O)cc4)n3)cc12 [compound 168]"
  IC50: "< 100 nM"
- molecule: "CC(C)c1cnn2ccc(-c3ccnc(Nc4ccc(N5CCC(N6CC(F)C6)CC5=O)cn4)n3)cc12 (stereo not shown) [compound 162]"
  IC50: "< 100 nM"
- molecule: "CC(C)c1cnn2ccc(-c3ccnc(Nc4ccc(N5CC(N(C)C)CC5=O)cn4)n3)cc12 (stereo not shown) [Synthetic Example 39]"
  IC50: "< 100 nM"
- molecule: "COc1nc(-c2ccnc(Nc3ccc(N4CCC(N5CCOCC5)CC4=O)cn3)n2)cc2c1ncn2C(C)C (stereo not shown) [compound 100]"
  IC50: "100 to 500 nM"
- molecule: "CC(C)n1cnc2c(F)nc(-c3ccnc(Nc4ccc(N5CCNCC5)cn4)n3)cc21 [compound 286]"
  IC50: "< 100 nM"
- molecule: "COc1nc(-c2ccnc(Nc3ccc(N4CCN(C5COC5)CC4=O)cn3)n2)cc2c1ncn2C(C)C [compound 137]"
  IC50: "< 100 nM"
- molecule: "CC(C)c1cnn2ccc(-c3nc(Nc4ccc(N5CCOCC5=O)cc4)ncc3F)cc12 [compound 25]"
  IC50: "< 100 nM"
- molecule: "CC(C)c1cnn2ccc(-c3ccnc(Nc4ccc(N5CCC(N6CCNCC6)CC5=O)cn4)n3)cc12 (stereo not shown) [compound 200]"
  IC50: "< 100 nM"
- molecule: "CC(C)n1cnc2c(F)nc(-c3ccnc(Nc4ccc(N5CCC(C)(N)CC5=O)cc4)n3)cc21 (stereo not shown) [compound 280]"
  IC50: "< 100 nM"
- molecule: "COc1nc(-c2ccnc(Nc3ccc(CN4CCC(F)C4)cn3)n2)cc2c1ncn2C(C)C (stereo not shown) [compound 76]"
  IC50: "100 to 500 nM"
- molecule: "CCN(CC)C1CCN(c2ccc(Nc3nccc(-c4ccn5ncc(C(C)C)c5c4)n3)nc2)C(=O)C1 (stereo not shown) [compound 176]"
  IC50: "< 100 nM"
- molecule: "CCN1CCN(c2ccc(Nc3nccc(-c4cc5c(ncn5C(C)C)c(OC)n4)n3)nc2)C(=O)C1 [compound 134]"
  IC50: "< 100 nM"
- molecule: "CC(C)c1cnn2ccc(-c3ccnc(Nc4ccc(C(=O)N(C)C)cc4)n3)cc12 [compound 167]"
  IC50: "< 100 nM"

----------
targetOrTestSystem: CDK2/CyclinE1 (Homo sapiens, UniProt P24941)
Construct: purchased SignalChem C29-18G
assayDetails: Assay for inhibition of CDK2/CyclinE1 (Caliper microfluidic kinase assay)
Type: biochemical
appliedConditions: CDK2/CyclinE1, 100 μM ATP; read-out: CDK2 IC50

- compound: "COc1nc(-c2ccnc(Nc3ccc4c(n3)CCN(C(=O)CO)C4)n2)cc2c1ncn2C(C)C [compound 141]"
  IC50: "> 1000 nM"
- compound: "CNC1CN(C(=O)c2ccc(Nc3nccc(-c4ccn5ncc(C(C)C)c5c4)n3)cc2)C1 [compound 190]"
  IC50: "10 to 100 nM"
- compound: "COc1nc(-c2nc(Nc3ccc(N4CCNCC4=O)c(F)c3)ncc2F)cc2c1ncn2C(C)C [compound 115]"
  IC50: "10 to 100 nM"
- compound: "CN(C)C1CCN(c2ccc(Nc3nccc(-c4ccn5ncc(C(C)(C)C)c5c4)n3)c(F)c2)C(=O)C1 (stereo not shown) [compound 181]"
  IC50: "< 10 nM"
- compound: "CC(C)n1cnc2c1CN(c1nc(Nc3ccc(N4CCCC(N)C4=O)cc3)ncc1F)CC2 (stereo not shown) [compound 247]"
  IC50: "10 to 100 nM"
- compound: "CNC1CCCN(c2ccc(Nc3nccc(-c4cc5c(ncn5C(C)C)c(F)n4)n3)nc2)C1=O (stereo not shown) [compound 284]"
  IC50: "> 1000 nM"
- compound: "CC(C)c1cnn2ccc(-c3ccnc(Nc4ccc(N5CCC(C)(N)CC5=O)cc4)n3)cc12 (stereo not shown) [compound 202]"
  IC50: "< 10 nM"
- compound: "CC(C)c1cnn2ccc(-c3nc(Nc4ccc(N5CCC(N(C)C)CC5=O)cn4)ncc3F)cc12 (stereo not shown) [compound 3]"
  IC50: "10 to 100 nM"
- compound: "CNC1CCCN(c2ccc(Nc3nccc(-c4ccn5ncc(C(C)C)c5c4)n3)nc2)C1=O (stereo not shown) [compound 208]"
  IC50: "100 to 1000 nM"
- compound: "COc1nc(-c2ccnc(Nc3ccn(CC4CCNCC4)n3)n2)cc2c1ncn2C(C)C [compound 108]"
  IC50: "> 1000 nM"
- compound: "CC(C)n1cnc2c1CN(c1nc(Nc3ccc(N4CCCC(N(C)C)C4=O)cc3)ncc1F)CC2 (stereo not shown) [compound 249]"
  IC50: "10 to 100 nM"
- compound: "CC(C)c1cnn2ccc(-c3nc(Nc4ccc(N5CCN(C6COC6)CCC5=O)cn4)ncc3F)cc12 [Synthetic Example 43]"
  IC50: "10 to 100 nM"
- compound: "CC(C)c1cnn2ccc(-c3ccnc(Nc4ccc(N5C(=O)C6CC5CN6)cn4)n3)cc12 (stereo not shown) [compound 210]"
  IC50: "10 to 100 nM"
- compound: "CCN1CCN(c2ccc(Nc3ncc(F)c(-c4cc5c(ncn5C(C)C)c(OC)n4)n3)nc2)C(=O)C1 [compound 132]"
  IC50: "> 1000 nM"
- compound: "CC(C)n1cnc2c(F)nc(-c3ccnc(Nc4ccc(N5CCNCC5)cn4)n3)cc21 [compound 286]"
  IC50: "100 to 1000 nM"
- compound: "COc1cc(N2CCC(N(C)C)CC2=O)ccc1Nc1nccc(-c2cc3c(ncn3C(C)C)c(F)n2)n1 (stereo not shown) [compound 296]"
  IC50: "< 10 nM"
